Data provenance is PubChem BioAssay (EPA / NIEHS).

# Read-out: E-selectin (Homo sapiens) (UniProt P16581)
# Sequence (P16581 whole entry, looked up): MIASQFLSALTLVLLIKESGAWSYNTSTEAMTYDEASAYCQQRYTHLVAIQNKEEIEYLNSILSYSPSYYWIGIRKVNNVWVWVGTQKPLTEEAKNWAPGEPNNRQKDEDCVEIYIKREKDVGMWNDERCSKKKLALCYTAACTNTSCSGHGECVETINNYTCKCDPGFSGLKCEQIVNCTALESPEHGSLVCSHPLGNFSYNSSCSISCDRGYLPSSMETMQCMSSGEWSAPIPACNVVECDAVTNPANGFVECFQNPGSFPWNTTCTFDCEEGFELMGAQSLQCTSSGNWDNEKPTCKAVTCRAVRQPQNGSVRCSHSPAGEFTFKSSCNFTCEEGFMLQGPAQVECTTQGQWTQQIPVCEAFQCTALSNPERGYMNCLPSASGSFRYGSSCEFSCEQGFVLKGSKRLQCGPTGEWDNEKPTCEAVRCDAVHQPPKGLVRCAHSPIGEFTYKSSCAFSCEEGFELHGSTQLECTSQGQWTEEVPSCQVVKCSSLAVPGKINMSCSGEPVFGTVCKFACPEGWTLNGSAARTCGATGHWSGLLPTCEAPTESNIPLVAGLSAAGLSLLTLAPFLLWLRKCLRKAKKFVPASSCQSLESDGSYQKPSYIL
# assayName: BSK_3C_Eselectin: BioMAP Diversity Plus: 3C Assay for Eselectin Biomarker Activity (AID 2283015)
# recordedConditions: primary human endothelial cells (HUVEC); actives raise or lower the signal
The source made the active and inactive calls. Rule for the calls: active = hit-call score of the fitted dose curve at least 0.9, where 1 is the maximum; inactive = score below 0.9.
Valid outcomes are listed here; reply with one: active, inactive

Cc1cc(CCN2CCN(c3nsc4ccccc34)CC2)cc2c1NC(=O)CC2(C)C
active

Below: the item to evaluate.
Task item: Please state the recorded outcome for this compound: `OCCC(F)(F)C(F)(F)C(F)(F)C(F)(F)C(F)(F)C(F)(F)F`
Reply: inactive

====

# assayTarget: Retinoic acid receptor alpha (Homo sapiens) (UniProt P10276)
# Sequence (P10276 whole entry, looked up): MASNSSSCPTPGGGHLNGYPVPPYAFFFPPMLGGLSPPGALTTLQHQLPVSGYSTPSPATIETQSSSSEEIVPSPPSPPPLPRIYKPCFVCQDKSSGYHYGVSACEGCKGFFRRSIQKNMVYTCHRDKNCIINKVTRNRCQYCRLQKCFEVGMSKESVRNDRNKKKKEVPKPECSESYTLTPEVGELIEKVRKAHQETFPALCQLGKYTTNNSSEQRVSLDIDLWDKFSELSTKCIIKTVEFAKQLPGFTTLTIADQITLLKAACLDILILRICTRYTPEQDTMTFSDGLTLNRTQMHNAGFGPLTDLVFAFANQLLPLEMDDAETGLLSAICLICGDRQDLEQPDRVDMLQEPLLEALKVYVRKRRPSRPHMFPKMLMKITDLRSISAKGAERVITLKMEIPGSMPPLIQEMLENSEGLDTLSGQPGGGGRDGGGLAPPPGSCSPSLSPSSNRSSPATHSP
# assayName: ATG_DR5_RAR_CIS: Attagene CIS-FACTORIAL HepG2 Assay for human Retinoic Acid Receptor Alpha (RARE), DR5 submotif (AID 2282934)
# recordedConditions: HepG2 Attagene cis-factorial RARE DR5 reporter, mRNA; actives raise or lower the signal
The source made the active and inactive calls. The calls were made as follows: active = hit-call score of the fitted dose curve at least 0.9, where 1 is the maximum; inactive = score below 0.9.
Valid outcomes are listed here; reply with one: active, inactive

CN1CCN(c2ccccc2/C=C2\SCCN(c3ccc(Cl)c(Cl)c3)C2=O)CC1
inactive
OC1CCCCC1
inactive
Cc1cc(C)c(O)c(C)c1
active
CCC(C)(C)C1CCC(O)CC1 (stereo unspecified)
inactive
CC(=O)NC1(c2cccc(F)c2)CCN(CC[C@@]2(c3ccc(Cl)c(Cl)c3)CN(c3ccccc3)C(=O)CO2)CC1
active

Task item: Please state the recorded outcome for this molecule: `Cc1cc(CCN2CCN(c3nsc4ccccc34)CC2)cc2c1NC(=O)CC2(C)C`
Reply: active

====

# Read-out: Matrix Metallopeptidase 9 (MMP9), MMP9 (gene 4318)
# assayName: BSK_KF3CT_MMP9: BioMAP Diversity Plus: KF3CT Assay for Matrix Metallopeptidase 9 (MMP9) Biomarker Activity (AID 2283074)
# recordedConditions: primary human keratinocytes with fibroblasts; actives raise or lower the signal
Calls of active or inactive are those of the source. The calls were made as follows: active = hit-call score of the fitted dose curve at least 0.9, where 1 is the maximum; inactive = score below 0.9.
Valid outcomes are listed here; reply with one: active, inactive

Nc1cccc2c(N)cccc12
inactive
CCCCCCCCCCCCN1CCCC1=O
active
CC[C@H](C)[C@@H](C(=O)O)n1sc2ccccc2c1=O
inactive
COC(=O)CCCCC(=O)OC
inactive
CCC(=C(c1ccc(O)cc1)c1ccc(OCCN(C)C)cc1)c1ccccc1
active
CCCCC(CC)COC(=O)CCCCC(=O)OCC(CC)CCCC (stereo not given)
inactive

Task item: Please state the recorded outcome for this compound: `c1ccc2cc3c(ccc4ccccc43)cc2c1`
Reply: inactive

Task item: Please state the recorded outcome for this compound: `c1ccc2c(c1)Cc1ccccc1-2`
Reply: inactive

Task item: Please state the recorded outcome for this compound: `CCCOc1sc(C(=O)N2CCC(c3cc(CN)ccc3F)CC2)c(C)c1Br`
Reply: active

Task item: Please state the recorded outcome for this compound: `CC[C@H](c1ccc(O)cc1)[C@@H](CC)c1ccc(O)cc1`
Reply: active

Task item: Please state the recorded outcome for this compound: `C#C[C@]1(O)CC[C@H]2[C@@H]3CCC4=CC(=O)CC[C@@H]4[C@H]3CC[C@@]21C`
Reply: inactive

Task item: Please state the recorded outcome for this compound: CCCCC(CC)COC(=O)CCCCC(=O)OCc1ccccc1 (stereo not given)
Reply: inactive

Task item: Please state the recorded outcome for this compound: COCC(C)O (stereo not given)
Reply: inactive

Task item: Please state the recorded outcome for this compound: `CC(C)(C)c1ccc(O)c(C(C)(C)C)c1`
Reply: active

Task item: Please state the recorded outcome for this compound: `CC1=C(/C=C/C(C)=C/C=C/C(C)=C/C(=O)O)C(C)(C)CCC1`
Reply: active

Task item: Please state the recorded outcome for this compound: `CCCCCCCCCCCCc1ccccc1S(=O)(=O)O`
Reply: active

Task item: Please state the recorded outcome for this compound: `COc1ccc([N+](=O)[O-])cc1N`
Reply: inactive

Task item: Please state the recorded outcome for this compound: `CC(C)(C)c1cccc(C(C)(C)C)c1O`
Reply: active

Task item: Please state the recorded outcome for this compound: `CCCCCCC(=O)O`
Reply: inactive

Task item: Please state the recorded outcome for this compound: `CCCCCCCCCCCCCCCS(=O)(=O)Oc1ccccc1`
Reply: inactive

Task item: Please state the recorded outcome for this compound: `CC#C[C@]1(O)CC[C@H]2[C@@H]3CCC4=CC(=O)CCC4=C3[C@@H](c3ccc(N(C)C)cc3)C[C@@]21C`
Reply: active

Task item: Please state the recorded outcome for this compound: `C[C@@H]1C[C@H]2[C@@H]3CCC4=CC(=O)C=C[C@]4(C)[C@@]3(F)[C@@H](O)C[C@]2(C)[C@@]1(O)C(=O)COP(=O)(O)O`
Reply: inactive

Task item: Please state the recorded outcome for this compound: `CN1CCN(c2ccccc2/C=C2\SCCN(c3ccc(Cl)c(Cl)c3)C2=O)CC1`
Reply: active

Task item: Please state the recorded outcome for this compound: `Cc1oc(-c2ccccc2)nc1CCOc1ccc(C[C@H](Nc2ccccc2C(=O)c2ccccc2)C(=O)O)cc1`
Reply: active

Task item: Please state the recorded outcome for this compound: `CN(C)C=O`
Reply: inactive

====

# System: 5-hydroxytryptamine receptor 2C (pig)
# assayName: NVS_GPCR_p5HT2C: NovaScreen (NVS) G Protein-Coupled Receptor Assay for pig Serotonin, 5-Hydroxytryptamine Receptor 2C (5HT2C) (AID 2283288)
Records with an inconclusive call do not appear. The source made the active and inactive calls. Rule for the calls: active = hit-call score of the fitted dose curve at least 0.9, where 1 is the maximum; inconclusive = response in the unintended direction; inactive = score below 0.9.
Valid outcomes are listed here; reply with one: 1 (active), 0 (inactive)

# example entries with known answers
CN1CCN(c2ccccc2/C=C2\SCCN(c3ccc(Cl)c(Cl)c3)C2=O)CC1
1
CCCOc1sc(C(=O)N2CCC(c3cc(CN)ccc3F)CC2)c(C)c1Br
1
NC(=O)N1C(=O)C(C(=O)c2cc(Cl)cs2)c2cc(F)c(Cl)cc21 (stereo unspecified)
0

Task item: Please state the recorded outcome for this compound: `CC(=O)NC1(c2cccc(F)c2)CCN(CC[C@@]2(c3ccc(Cl)c(Cl)c3)CN(c3ccccc3)C(=O)CO2)CC1`
Reply: 1

Task item: Please state the recorded outcome for this compound: `Cc1cc(CCN2CCN(c3nsc4ccccc34)CC2)cc2c1NC(=O)CC2(C)C`
Reply: 1

Task item: Please state the recorded outcome for this compound: `Oc1cc2ccccc2c2ccccc12`
Reply: 1

====

# Read-out: MicroRNA 122 (MIR122), gene 406906
# assayName: LTEA_HepaRG_MIR122: Life Technologies and Expression Analysis (LTEA) Assay for MicroRNA 122 (MIR122) using HepaRG (AID 2283516); note: the transcript read is the microRNA miR-122
# recordedConditions: mRNA level, 48 h; actives raise or lower the signal
Active and inactive are the calls of the source. Rule for the calls: active = hit-call score of the fitted dose curve at least 0.9, where 1 is the maximum; inactive = score below 0.9.
Valid outcomes are listed here; reply with one: active, inactive

# example entries with known answers
Cc1cc(CCN2CCN(c3nsc4ccccc34)CC2)cc2c1NC(=O)CC2(C)C
active
CCc1nn(C2CCCCC2)c2cc(C3(C#N)CCC(C(=O)O)CC3)ccc12 (stereo not given)
active
CCCCC(CC)COC(=O)CCCCC(=O)OCC(CC)CCCC (stereo not given)
inactive
C#C[C@]1(O)CC[C@H]2[C@@H]3CCC4=CC(=O)CC[C@@H]4[C@H]3CC[C@@]21C
inactive

Task item: Please state the recorded outcome for this compound: `CCCCCCCCCCCCN1CCCC1=O`
Reply: inactive

Task item: Please state the recorded outcome for this compound: `CC(=O)NC1(c2cccc(F)c2)CCN(CC[C@@]2(c3ccc(Cl)c(Cl)c3)CN(c3ccccc3)C(=O)CO2)CC1`
Reply: inactive

Task item: Please state the recorded outcome for this compound: `C[C@@H]1C[C@H]2[C@@H]3CCC4=CC(=O)C=C[C@]4(C)[C@@]3(F)[C@@H](O)C[C@]2(C)[C@@]1(O)C(=O)COP(=O)(O)O`
Reply: inactive

Task item: Please state the recorded outcome for this compound: `CC(C)(C)c1cc(C(C)(C)C)c(O)c(C(C)(C)C)c1`
Reply: inactive

Task item: Please state the recorded outcome for this compound: `CCCCOCCO`
Reply: inactive

Task item: Please state the recorded outcome for this compound: `CCCCCCCCC(=O)O`
Reply: inactive

====

# assayTarget: Bile acid receptor (Homo sapiens) (UniProt Q96RI1)
# Sequence (Q96RI1 whole entry, looked up): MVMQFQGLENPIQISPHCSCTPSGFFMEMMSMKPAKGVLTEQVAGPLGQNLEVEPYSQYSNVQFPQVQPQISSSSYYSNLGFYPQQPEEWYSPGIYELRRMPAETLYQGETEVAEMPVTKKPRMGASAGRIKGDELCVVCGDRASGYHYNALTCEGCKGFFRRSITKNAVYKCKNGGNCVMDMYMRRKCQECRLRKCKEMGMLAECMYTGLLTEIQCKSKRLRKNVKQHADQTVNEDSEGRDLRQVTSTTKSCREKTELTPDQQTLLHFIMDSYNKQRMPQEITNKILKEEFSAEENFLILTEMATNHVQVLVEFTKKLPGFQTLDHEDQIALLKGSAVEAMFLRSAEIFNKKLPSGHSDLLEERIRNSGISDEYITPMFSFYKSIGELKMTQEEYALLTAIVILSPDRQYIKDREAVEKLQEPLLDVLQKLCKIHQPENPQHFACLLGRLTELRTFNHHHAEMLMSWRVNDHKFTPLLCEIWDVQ
# assayName: NVS_NR_hFXR_Antagonist: NovaScreen (NVS) Nuclear Receptor Binding Assay for human Farnesoid X Receptor Antagonism (FXR) (AID 2283350)
Inconclusive results are not listed. Calls of active or inactive are those of the source. How the source made its calls: active means hit-call score of the fitted dose curve at least 0.9, where 1 is the maximum; inconclusive means response in the unintended direction; inactive means score below 0.9.
measuredParameter: AC50

As a guide, the following entries are already answered.
CC(C)CCCCCCOC(=O)CCCCC(=O)OCCCCCCC(C)C
inactive
CN1CCN(c2ccccc2/C=C2\SCCN(c3ccc(Cl)c(Cl)c3)C2=O)CC1
inactive
CC(O)CO (centres undefined)
inactive
CC#C[C@]1(O)CC[C@H]2[C@@H]3CCC4=CC(=O)CCC4=C3[C@@H](c3ccc(N(C)C)cc3)C[C@@]21C
inactive

Task item: I'd like to know its AC50. The compound in question is `CCCCCCCCCCCCc1ccccc1S(=O)(=O)O`
Reply: 12.2 µM (active)
